Attribution: patent US8551978B2

# pEC50 annotations
# Measured Target: hβ2 adrenergic receptor (Homo sapiens (Human), UniProt P07550)
# Sequence (P07550 whole entry): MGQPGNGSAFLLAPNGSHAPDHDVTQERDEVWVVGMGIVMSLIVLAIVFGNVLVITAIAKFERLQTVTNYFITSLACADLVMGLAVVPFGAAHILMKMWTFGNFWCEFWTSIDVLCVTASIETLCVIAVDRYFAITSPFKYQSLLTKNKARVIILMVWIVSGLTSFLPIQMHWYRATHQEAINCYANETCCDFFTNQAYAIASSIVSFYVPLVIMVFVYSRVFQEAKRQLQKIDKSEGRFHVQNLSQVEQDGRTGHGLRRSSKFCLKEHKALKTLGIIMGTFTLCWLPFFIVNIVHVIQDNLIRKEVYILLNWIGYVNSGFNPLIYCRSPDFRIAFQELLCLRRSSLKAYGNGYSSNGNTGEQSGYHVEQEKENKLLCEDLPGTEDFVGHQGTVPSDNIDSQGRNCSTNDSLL
# Method Description: Assay for determining adrenergic receptor agonist potency (cAMP Flashplate, HEK-293 cells)
# Format: cell-based
# Condition Parameters: data rounded to nearest 1 nM
Where a name gives a salt, the structure may show the parent alone.
# pEC50 = -log10(concentration in molar units)

Cc1cc(NC(=O)CCCCN(C)C(=O)CCN2CCC(OC(=O)Nc3ccccc3-c3ccccc3)CC2)c(C)cc1CNC[C@H](O)c1ccc(O)c2[nH]c(=O)ccc12 [Compound I-18, Ditrifluoroacetic Acid Salt]	9.00
COc1ccc(CC(C)NC[C@H](O)c2ccc(O)c3[nH]c(=O)ccc23)cc1CC(=O)NCc1ccc(N(C)C(=O)CCN2CCC(OC(=O)Nc3ccccc3-c3ccccc3)CC2)cc1 (stereo partly drawn)	9.00

Attention now shifts to the item below.
Task: Value lookup for pEC50; key = Cc1cc(CNC[C@H](O)c2ccc(O)c3[nH]c(=O)ccc23)ccc1NC(=O)c1ccc(C)c(N(C)C(=O)CCN2CCC(OC(=O)Nc3ccccc3-c3ccccc3)CC2)c1
Result: 9.00
